Molecular target: Polyunsaturated fatty acid 5-lipoxygenase (Homo sapiens) (UniProt P09917)
Sequence (P09917 whole entry): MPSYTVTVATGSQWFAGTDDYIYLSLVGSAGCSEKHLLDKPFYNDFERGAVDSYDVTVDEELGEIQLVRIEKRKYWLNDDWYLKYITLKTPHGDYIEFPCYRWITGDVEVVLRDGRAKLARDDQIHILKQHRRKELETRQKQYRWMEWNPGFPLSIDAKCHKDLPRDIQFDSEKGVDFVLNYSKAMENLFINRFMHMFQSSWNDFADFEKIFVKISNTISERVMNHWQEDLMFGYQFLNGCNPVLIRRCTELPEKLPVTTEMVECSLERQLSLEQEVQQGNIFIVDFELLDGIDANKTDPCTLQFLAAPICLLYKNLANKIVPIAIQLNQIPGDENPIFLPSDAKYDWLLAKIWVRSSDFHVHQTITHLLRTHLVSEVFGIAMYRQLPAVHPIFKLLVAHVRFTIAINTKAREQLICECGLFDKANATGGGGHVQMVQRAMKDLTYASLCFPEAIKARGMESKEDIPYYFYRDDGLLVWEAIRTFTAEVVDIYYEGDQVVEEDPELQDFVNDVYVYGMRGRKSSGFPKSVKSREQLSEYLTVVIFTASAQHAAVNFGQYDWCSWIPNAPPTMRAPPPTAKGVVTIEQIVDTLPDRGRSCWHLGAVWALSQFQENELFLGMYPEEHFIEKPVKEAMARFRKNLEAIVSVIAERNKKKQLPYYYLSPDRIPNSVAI
Experiment: Inhibition of recombinant human 5-Lipoxygenase expressed in Escherichia coli lysate assessed as residual activity using arachidonic acid as substrate at 10 uM after 10 mins by HPLC analysis
MEASUREMENT_LABEL: Activity (%)

As a guide, the following entries are already answered.
>  <STRUCTURE_SMILES>
Cc1ccc(-c2cc(CCC(=O)Oc3ccc(C(C)C)cc3)nn2-c2ccccc2)cc1

>  <TARGET_OR_SYSTEM>
Polyunsaturated fatty acid 5-lipoxygenase (Homo sapiens) (UniProt P09917)

>  <Activity, %>
92.6

$$$$
>  <STRUCTURE_SMILES>
Cc1ccc(-c2cc(CCC(=O)N3CCN(Cc4ccc(C(C)(C)C)cc4)CC3)nn2-c2ccccc2)cc1

>  <TARGET_OR_SYSTEM>
Polyunsaturated fatty acid 5-lipoxygenase (Homo sapiens) (UniProt P09917)

>  <Activity, %>
62.9

$$$$
>  <STRUCTURE_SMILES>
Cc1ccc(-c2cc(CCC(=O)N3CCN(Cc4ccc(C(C)(C)C)cc4)CC3)nn2-c2ccc3ccccc3n2)cc1

>  <TARGET_OR_SYSTEM>
Polyunsaturated fatty acid 5-lipoxygenase (Homo sapiens) (UniProt P09917)

>  <Activity, %>
115

$$$$
>  <STRUCTURE_SMILES>
Cc1ccc(-c2cc(CCC(=O)Oc3ccc(C(C)C)cc3)nn2-c2ccc(Cl)nn2)cc1

>  <TARGET_OR_SYSTEM>
Polyunsaturated fatty acid 5-lipoxygenase (Homo sapiens) (UniProt P09917)

>  <Activity, %>
83.4

$$$$

P = Cc1ccc(-c2cc(CCC(=O)Oc3ccc(C(C)C)cc3)nn2-c2ccc3ccccc3n2)cc1
Q = CCOC(=O)C1CCN(C(=O)CCc2cc(-c3ccc(C)cc3)n(-c3ccc4ccccc4n3)n2)CC1
-- ask Please let me know which one, P or Q , has a lower measured Activity value. Please respond with the label that marks your chosen entry.
-- reply Q

----------
Molecular target: Polyunsaturated fatty acid 5-lipoxygenase (Homo sapiens) (UniProt P09917)
Assay: Inhibition of 5-Lipoxygenase in arachidonic acid-stimulated human neutrophils assessed as residual activity at 10 uM after 15 mins by HPLC analysis in presence of A23187
MEASUREMENT_LABEL: Activity (%)

As a guide, the following entries are already answered.
>  <STRUCTURE_SMILES>
COc1ccc(-n2nc(CCC(=O)N3CCN(Cc4ccc(C(C)(C)C)cc4)CC3)cc2-c2ccc(C(F)(F)F)cc2)nn1

>  <Activity (%)>
36.2

$$$$
>  <STRUCTURE_SMILES>
O=C(CCc1cc(-c2ccc(C(F)(F)F)cc2)n(-c2ccc(Cl)nn2)n1)Oc1ccc(C2CCCC2)cc1

>  <Activity (%)>
77.2

$$$$
>  <STRUCTURE_SMILES>
CCOC(=O)C1CCN(C(=O)CCc2cc(-c3ccc(C)cc3)n(-c3ccc4ccccc4n3)n2)CC1

>  <Activity (%)>
25.8

$$$$

P = CC(C)(C)c1ccc(CN2CCN(C(=O)CCc3cc(-c4ccc(C(F)(F)F)cc4)n(-c4ccc(Cl)nn4)n3)CC2)cc1
Q = O=C(CCc1cc(-c2ccc(C(F)(F)F)cc2)n(-c2ccc(Cl)nn2)n1)N1CCN(C(=O)c2ccco2)CC1
R = CC(C)(C)c1ccc(CN2CCN(C(=O)CCc3cc(-c4ccc(C(F)(F)F)cc4)n(-c4ccc5ccccc5n4)n3)CC2)cc1
-- ask Rank items: key Activity, increasing. Submit the labels in the order that the ranking request calls for.
-- reply P, R, Q

P = Cc1ccc(-c2cc(CCC(=O)N3CCN(Cc4ccc(C(C)(C)C)cc4)CC3)nn2-c2ccc3ccccc3n2)cc1
Q = CCS(=O)(=O)N1CCN(C(=O)CCc2cc(-c3ccc(C)cc3)n(-c3ccc(Cl)nn3)n2)CC1
-- ask Please let me know which one, P or Q , has a lower measured Activity value. Please respond with the label that marks your chosen entry.
-- reply P

These entries and their values trace back to ChEMBL document CHEMBL1828531.
